- System: pyloric ligation ulcer
- protocolSummary: Pyloric ligation ulcer model (antiulcer activity)
- Type: in vivo, rat
- measurementSetup: rats, oral 30 min prior to pyloric ligation, 4 h; compounds 100 mg/kg, omeprazole 40 mg/kg
quantityName: Ulcer Index

[[record]]
molecule = "CC1(C(=O)O)CCC2(C)CCC3(C)C(=CC(=O)C4C5(C)C/C(=C\\c6ccc(F)cc6)C(=O)C(C)(C)C5CCC43C)C2C1 (stereo not shown)"
testedsystem = "pyloric ligation ulcer"
resultvalue = 1.16

[[record]]
molecule = "Cn1nc2c(c1-c1ccc(F)cc1)CC1(C)C(CCC3(C)C1C(=O)C=C1C4CC(C)(C(=O)O)CCC4(C)CCC13C)C2(C)C (stereo not shown)"
testedsystem = "pyloric ligation ulcer"
resultvalue = 1.12

[[record]]
molecule = "COc1ccc2[nH]c([S+]([O-])Cc3ncc(C)c(OC)c3C)nc2c1 (stereo not shown) [Omeprazole, reference compound]"
testedsystem = "pyloric ligation ulcer"
resultvalue = 3.31

[[record]]
molecule = "Cn1nc2c(c1-c1ccc(F)cc1)CC1(C)C(CCC3(C)C1C(=O)C=C1C4CC5(C)CC(OC5=O)C4(C)CCC13C)C2(C)C (stereo not shown)"
testedsystem = "pyloric ligation ulcer"
resultvalue = 1.04


====

Below: a set of entries, each annotated with reported Total acid.
- System: pyloric ligation ulcer
- protocolSummary: Pyloric ligation ulcer model (antiulcer activity)
- Format: in vivo, rat
- measurementSetup: gastric contents; rats, oral 30 min prior to pyloric ligation, 4 h; compounds 100 mg/kg, omeprazole 40 mg/kg
quantityName: Total acid (mEq/L)

[[record]]
compound = "Cn1nc2c(c1-c1ccc(F)cc1)CC1(C)C(CCC3(C)C1C(=O)C=C1C4CC5(C)CC(OC5=O)C4(C)CCC13C)C2(C)C (stereo not shown)"
quantityname = "Total acid"
unitofmeasurement = "mEq/L"
resultvalue = 0.06

[[record]]
compound = "COc1ccc2[nH]c([S+]([O-])Cc3ncc(C)c(OC)c3C)nc2c1 (stereo not shown) [Omeprazole, reference compound]"
quantityname = "Total acid"
unitofmeasurement = "mEq/L"
resultvalue = 0.33

[[record]]
compound = "Cn1nc2c(c1-c1ccc(F)cc1)CC1(C)C(CCC3(C)C1C(=O)C=C1C4CC(C)(C(=O)O)CCC4(C)CCC13C)C2(C)C (stereo not shown)"
quantityname = "Total acid"
unitofmeasurement = "mEq/L"
resultvalue = 0.08

[[record]]
compound = "CC1(C(=O)O)CCC2(C)CCC3(C)C(=CC(=O)C4C5(C)C/C(=C\\c6ccc(F)cc6)C(=O)C(C)(C)C5CCC43C)C2C1 (stereo not shown)"
quantityname = "Total acid"
unitofmeasurement = "mEq/L"
resultvalue = 0.09


====

- testedSystem: Human COX-2 (Homo sapiens)
- Sequence (P35354 18-604): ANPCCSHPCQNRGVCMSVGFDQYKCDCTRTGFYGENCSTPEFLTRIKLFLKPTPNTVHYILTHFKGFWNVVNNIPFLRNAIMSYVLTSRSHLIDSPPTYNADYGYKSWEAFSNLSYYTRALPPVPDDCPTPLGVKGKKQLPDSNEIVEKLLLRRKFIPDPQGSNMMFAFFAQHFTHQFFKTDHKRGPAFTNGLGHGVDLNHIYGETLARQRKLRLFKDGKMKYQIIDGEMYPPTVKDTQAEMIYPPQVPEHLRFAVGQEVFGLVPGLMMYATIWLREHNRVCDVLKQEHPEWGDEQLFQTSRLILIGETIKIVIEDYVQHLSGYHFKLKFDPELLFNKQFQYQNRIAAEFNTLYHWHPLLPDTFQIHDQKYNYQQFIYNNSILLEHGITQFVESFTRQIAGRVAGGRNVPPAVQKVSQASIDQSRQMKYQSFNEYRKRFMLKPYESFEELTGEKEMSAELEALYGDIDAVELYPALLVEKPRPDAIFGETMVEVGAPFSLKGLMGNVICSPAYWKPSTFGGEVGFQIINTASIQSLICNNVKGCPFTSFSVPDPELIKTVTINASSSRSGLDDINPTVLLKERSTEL
pIC50: −log10 of the molar value.
Below: a set of entries, each annotated with reported pIC50.
quantityName: pIC50

[[record]]
compound = "Cn1nc2c(c1-c1ccc(F)cc1)CC1(C)C(CCC3(C)C1C(=O)C=C1C4CC(C)(C(=O)O)CCC4(C)CCC13C)C2(C)C (stereo not drawn)"
quantityname = "pIC50"
resultvalue = 7.04

[[record]]
compound = "CC1(C(=O)O)CCC2(C)CCC3(C)C(=CC(=O)C4C5(C)C/C(=C\\c6ccc(F)cc6)C(=O)C(C)(C)C5CCC43C)C2C1 (stereo not drawn)"
quantityname = "pIC50"
resultvalue = 6.96

[[record]]
compound = "Cn1nc2c(c1-c1ccc(F)cc1)CC1(C)C(CCC3(C)C1C(=O)C=C1C4CC5(C)CC(OC5=O)C4(C)CCC13C)C2(C)C (stereo not drawn)"
quantityname = "pIC50"
resultvalue = 7.06


====

Below: a set of entries, each annotated with reported IC50.
- testedSystem: H+/K+-ATPase (Sus scrofa, UniProt P19156)
- Construct: Membrane vesicles containing H^+/K^+-ATPase were prepared from pig stomachs
- Sequence (P19156 2-1034 limits assumed): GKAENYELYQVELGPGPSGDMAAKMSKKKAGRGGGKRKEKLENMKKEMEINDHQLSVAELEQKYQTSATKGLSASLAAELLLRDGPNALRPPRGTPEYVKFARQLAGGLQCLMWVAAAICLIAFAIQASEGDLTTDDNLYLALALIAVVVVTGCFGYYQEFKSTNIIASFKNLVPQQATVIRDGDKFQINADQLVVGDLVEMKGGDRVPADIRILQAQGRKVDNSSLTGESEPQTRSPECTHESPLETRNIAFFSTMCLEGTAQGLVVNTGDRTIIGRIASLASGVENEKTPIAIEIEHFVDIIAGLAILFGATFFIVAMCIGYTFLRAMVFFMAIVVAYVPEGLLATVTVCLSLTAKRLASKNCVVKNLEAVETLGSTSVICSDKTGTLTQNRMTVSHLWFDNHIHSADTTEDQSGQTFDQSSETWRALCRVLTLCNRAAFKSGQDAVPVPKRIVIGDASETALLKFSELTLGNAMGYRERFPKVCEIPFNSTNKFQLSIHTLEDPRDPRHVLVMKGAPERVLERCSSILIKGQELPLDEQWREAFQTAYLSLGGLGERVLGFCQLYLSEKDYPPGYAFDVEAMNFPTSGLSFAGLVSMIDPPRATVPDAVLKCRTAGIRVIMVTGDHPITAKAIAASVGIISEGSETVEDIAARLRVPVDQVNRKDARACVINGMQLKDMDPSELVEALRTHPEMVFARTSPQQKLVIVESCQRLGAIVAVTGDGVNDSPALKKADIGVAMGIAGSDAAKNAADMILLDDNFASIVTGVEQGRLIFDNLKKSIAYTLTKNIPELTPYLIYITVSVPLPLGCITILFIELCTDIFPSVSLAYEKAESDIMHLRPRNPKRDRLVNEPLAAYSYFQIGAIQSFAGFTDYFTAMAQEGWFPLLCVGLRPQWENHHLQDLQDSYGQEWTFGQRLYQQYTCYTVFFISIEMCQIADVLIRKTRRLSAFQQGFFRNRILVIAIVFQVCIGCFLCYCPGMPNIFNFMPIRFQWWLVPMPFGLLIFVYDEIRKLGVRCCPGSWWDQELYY
- Sequence (P18434 whole entry partner): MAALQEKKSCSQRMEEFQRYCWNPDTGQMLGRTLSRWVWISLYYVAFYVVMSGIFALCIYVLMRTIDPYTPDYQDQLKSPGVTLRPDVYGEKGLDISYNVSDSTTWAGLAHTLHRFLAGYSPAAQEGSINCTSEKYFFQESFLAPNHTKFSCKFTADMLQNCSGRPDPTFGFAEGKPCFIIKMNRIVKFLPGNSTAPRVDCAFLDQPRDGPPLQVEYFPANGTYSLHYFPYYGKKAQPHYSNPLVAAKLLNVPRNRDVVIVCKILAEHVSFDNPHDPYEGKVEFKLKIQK
- protocolSummary: H+/K+-ATPase (proton pump) inhibition in membrane vesicles of stomach mucosa
- measurementSetup: pig gastric membrane vesicles, 37° C.; pre-incubation pH (6.0 or 7.4) not given
- Method: Membrane vesicles containing H^+/K^+-ATPase were prepared from pig stomachs obtained from a local slaughter house. Pigs were fasted overnight before slaughter. The gastric mucosa of four stomachs was rinsed with cold saturated NaCl solution for 3-5 min. […] The ATPase activity was measured at 37° C. as the release of inorganic phosphate (Pi) from ATP. […] Statistical differences (P<0.05) were calculated by Student's t-test.
quantityName: IC50 (µM)

[[record]]
molecule = "Cn1nc2c(c1-c1ccc(F)cc1)CC1(C)C(CCC3(C)C1C(=O)C=C1C4CC(C)(C(=O)O)CCC4(C)CCC13C)C2(C)C (stereo not shown) [Compound 3]"
quantityname = "IC50"
resultvalue = 10

[[record]]
molecule = "Cn1nc2c(c1-c1ccc(F)cc1)CC1(C)C(CCC3(C)C1C(=O)C=C1C4CC5(C)CC(OC5=O)C4(C)CCC13C)C2(C)C (stereo not shown) [Compound 4]"
quantityname = "IC50"
resultvalue = 9.21

[[record]]
molecule = "CC1(C(=O)O)CCC2(C)CCC3(C)C(=CC(=O)C4C5(C)C/C(=C\\c6ccc(F)cc6)C(=O)C(C)(C)C5CCC43C)C2C1 (stereo not shown) [Compound 2]"
quantityname = "IC50"
resultvalue = 11.5

[[record]]
molecule = "COc1ccc2[nH]c([S+]([O-])Cc3ncc(C)c(OC)c3C)nc2c1 (stereo not shown) [Omeprazole, reference compound]"
quantityname = "IC50"
resultvalue = 66.1


====

Below: a set of entries, each annotated with reported The anti-inflammatory activity ED50.
- System: cotton pellet-induced granuloma
- protocolSummary: Cotton pellet-induced granuloma bioassay
- Format: in vivo, rat
- measurementSetup: rat, compound-impregnated cotton pellets implanted s.c., 7 days; dose response 4, 7, 10 and 15 μmol
quantityName: The anti-inflammatory activity ED50 (µmol)

[[record]]
compound = "COc1ccc2c(c1)c(CC(=O)O)c(C)n2C(=O)c1ccc(Cl)cc1 [Indomethacin, reference compound]"
quantityname = "The anti-inflammatory activity ED50"
resultvalue = 9.568

[[record]]
compound = "CC1(C(=O)O)CCC2(C)CCC3(C)C(=CC(=O)C4C5(C)C/C(=C\\c6ccc(F)cc6)C(=O)C(C)(C)C5CCC43C)C2C1 (stereo not shown) [Compound 2]"
quantityname = "The anti-inflammatory activity ED50"
resultvalue = 1.52

[[record]]
compound = "Cn1nc2c(c1-c1ccc(F)cc1)CC1(C)C(CCC3(C)C1C(=O)C=C1C4CC(C)(C(=O)O)CCC4(C)CCC13C)C2(C)C (stereo not shown) [Compound 3]"
quantityname = "The anti-inflammatory activity ED50"
resultvalue = 1.47

[[record]]
compound = "Cn1nc2c(c1-c1ccc(F)cc1)CC1(C)C(CCC3(C)C1C(=O)C=C1C4CC5(C)CC(OC5=O)C4(C)CCC13C)C2(C)C (stereo not shown) [Compound 4]"
quantityname = "The anti-inflammatory activity ED50"
resultvalue = 1.35


====

// Human COX-1 (Homo sapiens, UniProt P23219) pIC50 records
pIC50: −log10 of the molar value.
quantityName: pIC50

[[record]]
compound = "Cn1nc2c(c1-c1ccc(F)cc1)CC1(C)C(CCC3(C)C1C(=O)C=C1C4CC5(C)CC(OC5=O)C4(C)CCC13C)C2(C)C (stereo not drawn)"
resultvalue = 3.46

[[record]]
compound = "CC1(C(=O)O)CCC2(C)CCC3(C)C(=CC(=O)C4C5(C)C/C(=C\\c6ccc(F)cc6)C(=O)C(C)(C)C5CCC43C)C2C1 (stereo not drawn)"
resultvalue = 3.53

[[record]]
compound = "Cn1nc2c(c1-c1ccc(F)cc1)CC1(C)C(CCC3(C)C1C(=O)C=C1C4CC(C)(C(=O)O)CCC4(C)CCC13C)C2(C)C (stereo not drawn)"
resultvalue = 3.51

